- targetOrSystem: SOS1 binding to KRAS G12C (Homo sapiens, UniProt Q07889)
- Construct: consisting of amino acid residues 564 to 1049 which are the catalytic domain; MSC-11-538 (KRAS G12C)
- Sequence (Q07889 564-1049, stated change not applied): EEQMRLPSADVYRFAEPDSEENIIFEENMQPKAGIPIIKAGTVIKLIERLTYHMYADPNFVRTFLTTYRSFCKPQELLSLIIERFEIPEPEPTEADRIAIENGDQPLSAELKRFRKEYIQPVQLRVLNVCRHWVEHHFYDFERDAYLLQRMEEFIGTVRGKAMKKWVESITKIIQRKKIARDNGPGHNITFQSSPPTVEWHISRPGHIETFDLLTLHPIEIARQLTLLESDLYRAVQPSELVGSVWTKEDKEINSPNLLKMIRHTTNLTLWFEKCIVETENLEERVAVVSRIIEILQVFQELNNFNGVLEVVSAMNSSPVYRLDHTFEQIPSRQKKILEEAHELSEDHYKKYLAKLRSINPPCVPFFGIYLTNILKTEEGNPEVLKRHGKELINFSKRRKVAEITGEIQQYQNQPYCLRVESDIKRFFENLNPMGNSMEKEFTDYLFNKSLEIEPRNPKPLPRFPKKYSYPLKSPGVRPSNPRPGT
- assayOverview: SOS1 GTP substitution inhibition test (HTRF/TR-FRET, KRAS G12C-SOS1 binding inhibitory ability)
- experimentalConditions: HTRF, GST-KRAS G12C (2-169), SOS1-Strep (564-1049), 1.6, 8, 40, 200, 1,000 nM
Below is a list of entries, each paired with its recorded IC50 value.

As a guide, the following entries are already answered.
- CNc1cc2c(N[C@H](C)c3cc(N)cc(C(F)(F)F)c3)nc(C)nc2cc1C(=O)N1CC2COCC2C1 (stereo partly shown): ≤ 50 nM
- CCNc1cc([C@@H](C)Nc2nc(C)nc3cc(C(=O)N4CCOCC4)c(OC)cc23)cc(C(F)(F)F)c1: 50 to 100 nM
- COc1cc2c(N[C@H](C)c3cccc(C(F)F)c3F)nc(C)nc2cc1C(=O)N1CCOCC1: 50 to 100 nM
- COc1cc2c(N[C@H](C)c3cc(N)cc(C(F)(F)F)c3)nc(C)nc2cc1C(=O)N1CCS(=O)(=O)CC1: ≤ 50 nM
- Cc1nc(N[C@H](C)c2cc(N)cc(C(F)(F)F)c2)c2cc(NC(C)C)c(C(=O)N3CCOCC3)cc2n1: 50 to 100 nM
- COc1cc2c(N[C@H](C)c3cc(N)cc(C#N)c3)nc(C)nc2cc1C(=O)N1CCOCC1: > 100 nM

Attention now turns to another entry.
Req: Which value of IC50 has been reported for COc1cc2c(N[C@H](C)c3cccc4c3CCC4)nc(C)nc2cc1C(=O)N1CCOCC1 in the records?
Resp: 50 to 100 nM

====

- targetOrSystem: SOS1 binding to KRAS G12C (Homo sapiens, UniProt Q07889)
- Construct: consisting of amino acid residues 564 to 1049 which are the catalytic domain; MSC-11-538 (KRAS G12C)
- assayOverview: SOS1 GTP substitution inhibition test (HTRF/TR-FRET, KRAS G12C-SOS1 binding inhibitory ability)
- experimentalConditions: HTRF, GST-KRAS G12C (2-169), SOS1-Strep (564-1049), 1.6, 8, 40, 200, 1,000 nM
pIC50: −log10 of the molar value.
Below is a list of entries, each paired with its recorded pIC50 value.

As a guide, the following entries are already answered.
- CNc1cc2c(N[C@H](C)c3cc(N)cc(-c4ccoc4)c3)nc(C)nc2cc1C(=O)N1CCOCC1 [Example 54]: 7.00 to 7.30
- COc1cc2c(N[C@H](C)c3cc(N)cc(C(F)(F)F)c3C)nc(C)nc2cc1C(=O)N1CCOCC1 [Example 16]: 7.00 to 7.30
- COc1cc2c(N[C@H](C)c3cc(N)cc(C(F)(F)F)c3)nc(CF)nc2cc1C(=O)N1CCOCC1 [Example 33]: < 7.00
- COc1cc2c(N[C@H](C)c3cc(NC(=O)C(F)(F)F)cc(C(F)(F)F)c3)nc(C)nc2cc1C(=O)N1CCOCC1 [Example 10]: < 7.00
- CNc1cc2c(N[C@H](C)c3cc(N)cc(C(F)F)c3)nc(C)nc2cc1C(=O)N1CCOCC1 [Example 51]: ≥ 7.30

Attention now turns to another entry.
Req: Which value of pIC50 has been reported for CNc1cc2c(N[C@H](C)c3cc(N)cc(C(F)F)c3F)nc(C)nc2cc1C(=O)N1CC2COCC2C1 (stereo partly drawn) [Example 63] in the records?
Resp: ≥ 7.30

The origin of these recorded values is patent US20240067613A1.
